Cited source: patent US20260258039A1

Could you please report measured Dmax for the items listed next?
- SUBJECT OF TEST: ER (Homo sapiens)
- Construct: T47D breast cancer cells were subcultured in cell culture medium; endogenous in cells; host or cells: T47D breast cancer cells
- EXPERIMENT: Degradation activities on ER (ELISA) in T47D breast cancer cells
- Format: cell-based
- EXPERIMENTAL PARAMETERS: T47D cells, 24 h, ELISA; maximum percentage of target protein degraded; read-out: Dmax

Form field: reported Dmax of O=C1CCC(N2Cc3cc(N4CCC(N5CC6(CCN(c7ccc([C@@H]8c9ccc(O)cc9OC[C@@H]8c8ccccc8)cc7F)CC6)C5)CC4)ccc3C2=O)C(=O)N1 (some centres unmarked)
> 75%

Cool, now Cc1ccccc1[C@H]1COc2cc(O)ccc2[C@H]1c1ccc(N2CCC(CN3CCC4(CC3)CN(c3ccc5c(c3)CN(C3CCC(=O)NC3=O)C5=O)C4)CC2)cc1 (some centres unmarked)
50 to 75%

Cool, now O=C1CCC(N2Cc3cc(N4CC5(CCN(CC6CCN(c7c(F)cc([C@@H]8c9ccc(O)cc9OC[C@@H]8c8cccc(F)c8F)cc7F)CC6)CC5)C4)ccc3C2=O)C(=O)N1 (some centres unmarked)
50 to 75%

Cool, now O=C1CCC(N2C(=O)c3ccc(N4CC5CN(CC6CCN(c7ccc([C@@H]8c9ccc(O)cc9CC[C@@H]8c8ccccc8)cc7)CC6)CC5C4)cc3C2=O)C(=O)N1 (some centres unmarked)
< 50%

Cool, now O=C1CC[C@@H](N2Cc3cc(N4CC5(CCN(CC6CCN(c7ccc([C@@H]8c9ccc(O)cc9OC[C@@H]8c8ccccc8F)cc7)CC6)CC5)C4)ccc3C2=O)C(=O)N1
< 50%

----------
- SUBJECT OF TEST: ER (Homo sapiens)
- Construct: T47D breast cancer cells were subcultured in cell culture medium; endogenous in cells; host or cells: T47D breast cancer cells
- EXPERIMENT: Degradation activities on ER (ELISA) in T47D breast cancer cells
- Format: cell-based
- EXPERIMENTAL PARAMETERS: T47D cells, 24 h, ELISA; maximum percentage of target protein degraded; read-out: Dmax
Could you please report measured Dmax for the items listed next?

Form field: reported Dmax of O=C1CCC(N2C(=O)c3ccc(N4CC(N5CCN(c6ccc([C@@H]7c8ccc(O)cc8CC[C@@H]7c7ccccc7)cc6)CC5)C4)cc3C2=O)C(=O)N1 (stereo partly drawn) [Example 55]
< 50%

Cool, now O=C1CCC(N2Cc3cc(N4CC5(CCN(CC6CCN(c7ccc([C@@H]8c9ccc(O)cc9OC[C@@H]8c8ccccc8)cc7F)CC6)CC5)C4)ccc3C2=O)C(=O)N1 (stereo partly drawn) [Example 88]
50 to 75%

Cool, now O=C1CC[C@H](N2Cc3cc(N4CC5(CCN(CC6CCN(c7ccc([C@@H]8c9ccc(O)cc9OC[C@@H]8c8ccccc8F)cc7)CC6)CC5)C4)ccc3C2=O)C(=O)N1 [Example 91]
> 75%

----------
- EXPERIMENT: Pharmacokinetics in female ICR mice
- EXPERIMENTAL PARAMETERS: female, ICR, mouse, plasma, po, 3 mg/kg, AUCinf (μg*h/mL), oral administration 3 mg/kg, female ICR mice
OBSERVATION TYPE: AUC(0-inf)

Form field: reported AUC(0-inf) of O=C1CCC(N2Cc3cc(N4CCN(CC5CCN(c6ccc([C@@H]7c8ccc(O)cc8CC[C@@H]7c7ccccc7)cc6)CC5)CC4)ccc3C2=O)C(=O)N1 (stereo partly drawn) [Control compound X, reference compound]
1300 ng·h/mL

Cool, now O=C1CCC(N2Cc3cc(N4CC5(CCN(CC6CCN(c7ccc([C@@H]8c9ccc(O)cc9OC[C@@H]8c8c(F)cccc8F)cc7F)CC6)CC5)C4)ccc3C2=O)C(=O)N1 (stereo partly drawn)
> 2500 ng·h/mL

Cool, now O=C1CCC(N2Cc3cc(N4CC5(CCN(CC6CCN(c7c(F)cc([C@@H]8c9ccc(O)cc9OC[C@@H]8c8ccccc8F)cc7F)CC6)CC5)C4)ccc3C2=O)C(=O)N1 (stereo partly drawn)
1400 to 2500 ng·h/mL

Cool, now O=C1CCC(N2Cc3cc(N4CC5(CCN(CC6CCN(c7c(F)cc([C@@H]8c9ccc(O)cc9OC[C@@H]8c8c(F)cccc8F)cc7F)CC6)CC5)C4)ccc3C2=O)C(=O)N1 (stereo partly drawn)
> 2500 ng·h/mL

Cool, now O=C1CCC(N2Cc3cc(N4CC5(CCN(CC6CCN(c7ccc([C@@H]8c9ccc(O)cc9OC[C@@H]8c8c(F)cccc8F)cc7)CC6)CC5)C4)ccc3C2=O)C(=O)N1 (stereo partly drawn)
> 2500 ng·h/mL

Cool, now O=C1CCC(N2Cc3cc(N4CC5(CCN(CC6CCN(c7ccc([C@@H]8c9ccc(O)cc9OC[C@@H]8c8ccccc8F)cc7)CC6)CC5)C4)ccc3C2=O)C(=O)N1 (stereo partly drawn)
1400 to 2500 ng·h/mL

----------
Could you please report measured Percentage reduction of ER for the items listed next?
- SUBJECT OF TEST: ER (Homo sapiens, UniProt P03372)
- Construct: T47D breast cancer cells were subcultured in cell culture medium; endogenous in cells; host or cells: T47D breast cancer cells
- Sequence (P03372 1-595): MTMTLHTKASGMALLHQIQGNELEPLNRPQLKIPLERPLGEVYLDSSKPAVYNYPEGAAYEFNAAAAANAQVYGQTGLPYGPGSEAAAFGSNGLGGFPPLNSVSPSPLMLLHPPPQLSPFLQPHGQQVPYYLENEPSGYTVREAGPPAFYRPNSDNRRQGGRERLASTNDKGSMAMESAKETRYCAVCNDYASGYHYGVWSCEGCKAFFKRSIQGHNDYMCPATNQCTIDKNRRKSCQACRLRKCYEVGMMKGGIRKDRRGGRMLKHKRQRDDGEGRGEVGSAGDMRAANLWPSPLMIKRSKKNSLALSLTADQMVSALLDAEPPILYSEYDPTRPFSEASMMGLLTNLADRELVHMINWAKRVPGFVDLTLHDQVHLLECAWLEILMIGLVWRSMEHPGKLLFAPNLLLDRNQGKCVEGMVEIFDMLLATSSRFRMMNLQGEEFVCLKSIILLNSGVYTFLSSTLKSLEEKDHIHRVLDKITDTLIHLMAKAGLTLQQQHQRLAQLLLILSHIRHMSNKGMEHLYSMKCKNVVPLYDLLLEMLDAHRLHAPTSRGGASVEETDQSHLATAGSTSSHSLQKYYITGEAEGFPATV
- EXPERIMENT: Degradation activities on ER (Western blotting) in T47D breast cancer cells
- Assay type: cell-based
- EXPERIMENTAL PARAMETERS: compound concentration 10 nM, 24 h, Western blot
Only the number, expressed in %, is required.

Form field: reported Percentage reduction of ER of O=C1CCC(N2Cc3cc(N4CCC(CN5CC6(CCN(c7ccc([C@@H]8c9ccc(O)cc9CC[C@@H]8c8ccccc8)cc7)CC6)C5)CC4)ccc3C2=O)C(=O)N1 (some centres unmarked)
84

Cool, now O=C1CCC(N2C(=O)c3ccc(N4CC5CN(CC6CCN(c7ccc([C@@H]8c9ccc(O)cc9CC[C@@H]8c8ccccc8)cc7)CC6)CC5C4)cc3C2=O)C(=O)N1 (some centres unmarked)
47

Cool, now O=C1CCC(N2Cc3cc(N4CC5(CCN(CC6CCN(c7ccc([C@@H]8c9ccc(O)cc9CC[C@@H]8c8ccccc8)cc7)CC6)CC5)C4)ccc3C2=O)C(=O)N1 (some centres unmarked)
74

Cool, now O=C1CCC(N2C(=O)c3ccc(N4CCC(CN5CCC6(CC5)CN(c5ccc([C@@H]7c8ccc(O)cc8CC[C@@H]7c7ccccc7)cc5)C6)CC4)cc3C2=O)C(=O)N1 (some centres unmarked)
71

Cool, now O=C1CCC(N2Cc3cc(N4CCC(N5CC6(CCN(c7ccc([C@@H]8c9ccc(O)cc9CC[C@@H]8c8ccccc8)cc7)CC6)C5)CC4)ccc3C2=O)C(=O)N1 (some centres unmarked)
84

Cool, now O=C1CCC(N2Cc3cc(N4CC5(CCN(CC6CCN(c7ccc([C@@H]8c9ccc(O)cc9OC[C@@H]8c8c(F)cccc8F)cc7)CC6)CC5)C4)ccc3C2=O)C(=O)N1 (some centres unmarked)
51

Cool, now O=C1CCC(N2Cc3cc(N4CC5CN(CC6CCN(c7ccc([C@H]8c9ccc(O)cc9OC[C@H]8c8ccccc8)cc7)CC6)CC5C4)ccc3C2=O)C(=O)N1 (some centres unmarked)
49

Cool, now O=C1CCC(N2Cc3cc(N4CC5(CCN(CC6CCN(c7c(F)cc([C@@H]8c9ccc(O)cc9OC[C@@H]8c8ccccc8F)cc7F)CC6)CC5)C4)ccc3C2=O)C(=O)N1 (some centres unmarked)
81

Cool, now O=C1CCC(N2Cc3cc(N4CC5(CCN(CC6CCN(c7ccc([C@@H]8c9ccc(O)cc9OC[C@@H]8c8ccccc8)cc7F)CC6)CC5)C4)ccc3C2=O)C(=O)N1 (some centres unmarked)
47

Cool, now O=C1CCC(N2Cc3cc(N4CC(N5CCN(c6ccc([C@@H]7c8ccc(O)cc8CC[C@@H]7c7ccccc7)cc6)CC5)C4)ccc3C2=O)C(=O)N1 (some centres unmarked)
54

Cool, now O=C1CCC(N2C(=O)c3ccc(N4CC5(CCN(CC6CCN(c7ccc([C@@H]8c9ccc(O)cc9OC[C@@H]8c8ccccc8)cc7)CC6)CC5)C4)cc3C2=O)C(=O)N1 (some centres unmarked)
82
